targetDesc: Histamine H3 receptor (Mus musculus)
assayMethodText: Compound was tested for its effect at histamine H3 receptors (in vivo) on mice by central H3-receptor test.
Format: functional, organism-based
resultType: ED50 (mg/kg)

Example cases with answers are listed next.
CCCCC[C@@H](C)NC(=O)OCCCc1c[nH]cn1 = 1.5
CC(C)NC(=O)OCCCc1c[nH]cn1 = 15

A: CCCCCCC(C)NC(=O)OCCCc1c[nH]cn1 (centres undefined)
B: CCCC[C@H](C)NC(=O)OCCCc1c[nH]cn1
Just tell me: smaller ED50 value, A or B ? Reply with the label of the item you choose.
B
(B: 1.5 mg/kg, A: 3.2 mg/kg)

A: CCCNC(=O)OCCCc1c[nH]cn1
B: CC[C@H](C)NC(=O)OCCCc1c[nH]cn1
C: CCC(C)NC(=O)OCCCc1c[nH]cn1 (centres undefined)
Rank by ED50 (largest to smallest). Thanks in advance for listing the labels in the requested order.
B, A, C

A: CCCC(C)CNC(=O)OCCCc1c[nH]cn1 (centres undefined)
B: CCCCCCCCNC(=O)OCCCc1c[nH]cn1
Just tell me: smaller ED50 value, A or B ? Reply with the label of the item you choose.
B

a: CC[C@@H](C)NC(=O)OCCCc1c[nH]cn1
b: CCCCCCNC(=O)OCCCc1c[nH]cn1
Just tell me: smaller ED50 value, a or b ? Reply with the label of the item you choose.
b
